tested_on: AR protein (Homo sapiens)
Construct: host or cells: VCaP
Sequence (P10275 1-920): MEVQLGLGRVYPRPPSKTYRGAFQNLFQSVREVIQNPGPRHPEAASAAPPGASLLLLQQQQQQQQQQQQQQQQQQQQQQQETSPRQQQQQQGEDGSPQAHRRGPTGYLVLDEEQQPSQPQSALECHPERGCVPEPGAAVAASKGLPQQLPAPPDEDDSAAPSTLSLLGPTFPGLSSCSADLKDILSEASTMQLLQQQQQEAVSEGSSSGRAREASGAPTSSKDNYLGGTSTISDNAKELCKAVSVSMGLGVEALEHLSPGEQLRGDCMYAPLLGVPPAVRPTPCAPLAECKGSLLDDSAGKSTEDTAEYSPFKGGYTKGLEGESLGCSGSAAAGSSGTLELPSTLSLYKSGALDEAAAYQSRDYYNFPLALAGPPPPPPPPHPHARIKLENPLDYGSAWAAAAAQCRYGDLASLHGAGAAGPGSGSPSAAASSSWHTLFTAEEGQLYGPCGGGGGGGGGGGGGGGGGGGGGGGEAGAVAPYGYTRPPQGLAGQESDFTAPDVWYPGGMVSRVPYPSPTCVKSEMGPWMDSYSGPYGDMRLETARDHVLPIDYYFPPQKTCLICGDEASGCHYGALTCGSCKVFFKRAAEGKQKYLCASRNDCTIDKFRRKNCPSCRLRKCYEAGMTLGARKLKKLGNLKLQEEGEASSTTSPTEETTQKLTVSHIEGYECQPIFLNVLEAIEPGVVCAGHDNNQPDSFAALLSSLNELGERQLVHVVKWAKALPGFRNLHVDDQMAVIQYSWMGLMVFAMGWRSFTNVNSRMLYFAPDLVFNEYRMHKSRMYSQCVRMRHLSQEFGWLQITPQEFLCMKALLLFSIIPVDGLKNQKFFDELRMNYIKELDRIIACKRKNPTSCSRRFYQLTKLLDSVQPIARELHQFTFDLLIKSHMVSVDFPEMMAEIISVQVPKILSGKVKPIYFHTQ
procedure_summary: AR protein degradation in VCaP cells (Western blot)
Format: cell-based
settings: 0.5 nM, 8h
Labelling field: enter y if recorded Degradation rate of AR protein in VCaP cells is less than 40%. Enter n if it equals or exceeds that cut-off.

Before answering, review these 2 worked examples.
COc1cc(O[C@H]2C(C)(C)[C@H](NC(=O)c3ccc(N4CCC5(CC4)CC(N4CCC6(CCc7cc(C(=O)N[C@H]8CCC(=O)NC8=O)c(F)cc7O6)CC4)C5)cc3)C2(C)C)ccc1C#N = y
Cn1c(=O)n(C2CCC(=O)NC2=O)c2cc3c(cc21)C1(CCN(C2CC4(CCN(c5ccc(C(=O)N[C@H]6CC[C@H](Oc7ccc(C#N)c(Cl)c7)CC6)nn5)CC4)C2)CC1)CO3 (relative stereo) = n

Task: Criterion: Degradation rate of AR protein in VCaP cells strictly below 40%. Is it met by COc1cc(O[C@H]2C(C)(C)[C@H](NC(=O)c3ccc(N4CCC(CN5CC6(CCC7(CC6)COc6c7ccc7c6CN(C6CCC(=O)NC6=O)C7=O)C5)CC4)cc3)C2(C)C)ccc1C#N (relative stereo) ?
Result: n

Task: Criterion: Degradation rate of AR protein in VCaP cells strictly below 40%. Is it met by COc1cc(O[C@H]2C(C)(C)[C@H](NC(=O)c3ccc(N4CCC(C)(CN5CCC6(CC5)COc5cc7c(cc56)n(C)c(=O)n7C5CCC(=O)NC5=O)CC4)cc3)C2(C)C)ccc1C#N (relative stereo) ?
Result: n

Task: Criterion: Degradation rate of AR protein in VCaP cells strictly below 40%. Is it met by `COc1cc(O[C@H]2C(C)(C)[C@H](NC(=O)c3ccc(N4CCC(CN5CCC6(CCc7cc(F)c(C(=O)N[C@H]8CCC(=O)NC8=O)cc7O6)CC5)CC4)cc3)C2(C)C)ccc1C#N` ?
Result: y

Task: Criterion: Degradation rate of AR protein in VCaP cells strictly below 40%. Is it met by `COc1cc(O[C@H]2C(C)(C)[C@H](NC(=O)c3ccc(N4CCC(C)(CN5CCC6(CCc7cc(F)c(C(=O)N[C@H]8CCC(=O)NC8=O)cc7O6)CC5)CC4)cc3)C2(C)C)ccc1C#N` ?
Result: y

Task: Criterion: Degradation rate of AR protein in VCaP cells strictly below 40%. Is it met by N#Cc1ccc(O[C@H]2CC[C@H](NC(=O)c3ccc(N4CCC(N5CCC6(CC5)CCC5(CC6)COc6c5ccc5c6CN(C6CCC(=O)NC6=O)C5=O)CC4)nn3)CC2)cc1Cl (relative stereo) ?
Result: n

Task: Criterion: Degradation rate of AR protein in VCaP cells strictly below 40%. Is it met by COc1cc(O[C@H]2C(C)(C)[C@H](NC(=O)c3ccc(N4CCC(CN5CCC6(CC5)COc5c6ccc6c5n(C)c(=O)n6C5CCC(=O)NC5=O)CC4)nn3)C2(C)C)ccc1C#N (relative stereo) ?
Result: n

Task: Criterion: Degradation rate of AR protein in VCaP cells strictly below 40%. Is it met by `CC1(C)[C@H](NC(=O)c2ccc(N3CCC(CN4CCC5(CCc6cc(C(=O)N[C@H]7CCC(=O)NC7=O)c(F)cc6O5)CC4)CC3)nc2)C(C)(C)[C@H]1Oc1ccc(C#N)c(C(F)(F)F)c1` ?
Result: n

Task: Criterion: Degradation rate of AR protein in VCaP cells strictly below 40%. Is it met by `COc1cc(O[C@H]2C(C)(C)[C@H](NC(=O)c3ccc(N4CCC(C)(CN5CCC6(CCc7cc(C(=O)N[C@H]8CCC(=O)NC8=O)c(F)cc7O6)CC5)CC4)nc3)C2(C)C)ccc1C#N` ?
Result: y

Task: Criterion: Degradation rate of AR protein in VCaP cells strictly below 40%. Is it met by `COc1cc(O[C@H]2C(C)(C)[C@H](NC(=O)c3ccc(N4CCC(C)(CN5CCC6(CCc7cc(C(=O)N[C@H]8CCC(=O)NC8=O)c(F)cc7O6)CC5)CC4)cn3)C2(C)C)ccc1C#N` ?
Result: y

Task: Criterion: Degradation rate of AR protein in VCaP cells strictly below 40%. Is it met by `C[C@H]1CC2(CCN(c3ccc(C(=O)N4CCC(CN5CCN6c7ccc(C(=O)N[C@H]8CCC(=O)NC8=O)cc7OC[C@H]6C5)CC4)cc3)CC2)CN1c1ccc(C#N)c(Cl)c1` ?
Result: y

Task: Criterion: Degradation rate of AR protein in VCaP cells strictly below 40%. Is it met by `COc1cc(O[C@H]2C(C)(C)[C@H](NC(=O)c3ccc(N4CCC(CN5CCN6c7ccc(C(=O)N[C@H]8CCC(=O)NC8=O)cc7OC[C@@H]6C5)CC4)cc3)C2(C)C)ccc1C#N` ?
Result: y

Task: Criterion: Degradation rate of AR protein in VCaP cells strictly below 40%. Is it met by `COc1cc(O[C@H]2C(C)(C)[C@H](NC(=O)c3ccc(N4CCC(CN5CCN6c7ccc(N[C@H]8CCC(=O)NC8=O)cc7OC[C@@H]6C5)CC4)cc3)C2(C)C)ccc1C#N` ?
Result: y

Task: Criterion: Degradation rate of AR protein in VCaP cells strictly below 40%. Is it met by `COc1cc(O[C@H]2C(C)(C)[C@H](NC(=O)c3ccc(N4CCC(CN5CCC6(CC5)COc5c6ccc(C(=O)N[C@H]6CCC(=O)NC6=O)c5F)CC4)cc3)C2(C)C)ccc1C#N` ?
Result: y

====

tested_on: UniProtKB P03372
Sequence (P03372 whole entry): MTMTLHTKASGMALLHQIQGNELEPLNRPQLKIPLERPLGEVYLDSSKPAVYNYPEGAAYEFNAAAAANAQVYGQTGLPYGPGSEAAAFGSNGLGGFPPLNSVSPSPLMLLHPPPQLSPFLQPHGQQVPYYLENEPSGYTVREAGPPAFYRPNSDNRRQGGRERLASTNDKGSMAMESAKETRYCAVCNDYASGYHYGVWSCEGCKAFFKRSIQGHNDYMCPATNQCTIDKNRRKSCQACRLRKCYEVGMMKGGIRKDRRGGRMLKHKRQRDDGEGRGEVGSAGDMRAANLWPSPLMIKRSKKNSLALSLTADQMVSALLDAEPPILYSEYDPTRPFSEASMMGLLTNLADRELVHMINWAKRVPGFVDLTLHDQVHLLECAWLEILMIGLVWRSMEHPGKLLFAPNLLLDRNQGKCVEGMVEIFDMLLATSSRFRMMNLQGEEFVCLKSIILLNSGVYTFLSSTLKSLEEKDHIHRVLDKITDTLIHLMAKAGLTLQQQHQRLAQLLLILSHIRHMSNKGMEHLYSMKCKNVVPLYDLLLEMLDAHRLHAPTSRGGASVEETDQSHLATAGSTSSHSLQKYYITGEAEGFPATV
procedure_summary: ERα degradation in T-47D cells (Western blot)
Type: cell-based
settings: 10nM, 4 hours
Each item that follows carries a reported Degradation rate of ERα in T-47D cells (%).
Just the number please, in %, no unit attached.

Task: Form field: reported Degradation rate of ERα in T-47D cells (%) of Cn1c(=O)n(C2CCC(=O)NC2=O)c2ccc3c(c21)OCC31CCN(C(=O)C2CN(CC3CCN(c4ccc([C@@H]5c6ccc(O)cc6CC[C@@H]5c5ccccc5)cc4)CC3)C2)CC1 (some centres unmarked)
Result: 71

Task: Form field: reported Degradation rate of ERα in T-47D cells (%) of Cn1c(=O)n(C2CCC(=O)NC2=O)c2ccc3c(c21)C1(CCN(C[C@H]2CC[C@@H](OC4CCN(c5ccc([C@@H]6c7ccc(O)cc7CC[C@@H]6c6ccccc6)cc5)CC4)CC2)CC1)CO3 (some centres unmarked)
Result: 49

Task: Form field: reported Degradation rate of ERα in T-47D cells (%) of `O=C1CC[C@H](NC(=O)c2ccc3c(c2F)OCC32CCN(C3CCC4(CC3)CN(c3ccc([C@@H]5c6ccc(O)cc6CC[C@@H]5c5ccccc5)cc3)C4)CC2)C(=O)N1`
Result: 3

Task: Form field: reported Degradation rate of ERα in T-47D cells (%) of O=C1CCC(N2Cc3c(ccc4c3OCC43CCC4(CCN(C5CCN(C(=O)C6CCN(c7ccc([C@@H]8c9ccc(O)cc9CC[C@@H]8c8ccccc8)cc7)CC6)CC5)CC4)CC3)C2=O)C(=O)N1 (some centres unmarked)
Result: 79

Task: Form field: reported Degradation rate of ERα in T-47D cells (%) of O=C1CCC(N2Cc3c(ccc4c3OCC43CCC4(CC3)CN(C3CCN(C(=O)C5CCN(c6ccc([C@@H]7c8ccc(O)cc8CC[C@@H]7c7ccccc7)cc6)CC5)CC3)C4)C2=O)C(=O)N1 (some centres unmarked)
Result: 83
